- Assay Comment: binders of probe aFGF2 on microarray, primary screen, stem cell growth factor project, biochemical, small-molecule microarray, fluorescence 635/667 (AID 1067);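 further: measures binding of biotinylated aFGF2 protein to printed compounds on slides; z-score merges feature fluorescence and signal-to-noise across triplicate slides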
- Particulars: higher = more signal
Criterion: composite z-score meeting or surpassing -0.08. Met: Yes. Not met: No.

Consider the worked cases shown below.
Molecule | Class Label
CCOC(=O)[C@H](CC(C)C)NC(=O)CCC1CC(OC(=O)NCc2ccc3c(c2)OCO3)CC2(CCCC(COC(=O)NCCOc3ccccc3)O2)O1 (stereo not given in full) | No
COc1ccc(-c2cnnc(CCCn3ccnc3-c3ccccc3)n2)cc1 | No
CCOC(=O)[C@H](Cc1ccccc1)NC(=O)CCC1CC(OC(=O)NCc2ccc3c(c2)OCO3)CC2(CCCC(COC(=O)NCCCN3CCCC3=O)O2)O1 (stereo not given in full) | Yes
CC(C)(C)N1C(=O)[C@H]2[C@H]3[C@H](O)[C@H](O)CC(=NOC[C@@H](O)COCc4ccco4)[C@@H]3CC[C@H]2C1=O | Yes
C#CCCCON=C1[C@H]2CCn3c(=O)n(Cc4cc5c(cc4Cl)OCO5)c(=O)n3[C@H]2[C@H](O)[C@@H]2O[C@H]12 | No

In: Please tell me: is the molecule `Cc1ccc(C(C)C)n1C(=O)OC(C)(C)C` at or over -0.08 in terms of composite z-score?
Out: Yes

In: // inclusive: composite z-score at least -0.08? input: `CC(C)=NOC[C@@H](O)[C@H]1O[C@@H]2OC(C)(C)O[C@@H]2[C@H]1O`
Out: Yes

In: Does the molecule COC(=O)[C@H](C)NC(=O)CCC1CC(OC(=O)NCc2ccc3c(c2)OCO3)CC2(CCCC(COC(=O)NCCC(C)C)O2)O1 (stereo not given in full) have recorded composite z-score that is -0.08 or more?
Out: No

In: Please check the record `CC(CCN1CCCc2nc(C)c(C)cc21)=NO[C@H](C)c1cn([C@H](CO)Cc2ccccc2)nn1` and state if its composite z-score is at or above -0.08.
Out: Yes

---

- Study System: NADPH oxidase 4 (Homo sapiens)
- Assay Comment: NOX4-dependent H2O2 signal modulators, primary screen, NOX inhibitor project, cell-based, HEK293-NOX4, tetracycline-induced, Amplex Red fluorescence (AID 1160)
- Particulars: 45 min, higher = more signal, called active from +8 up or from −8 down
Recorded z-score for the following compounds
Form field (numeric): enter value without unit.

Compound | Value
O=C1C[C@@H](O)[C@@H](O)[C@@H]2[C@@H]3C(=O)N(Cc4ccccc4)C(=O)[C@@H]3CC[C@H]12 | -0.79

In: Read the entry CCOC(=O)[C@H](CC(C)C)NC(=O)CCC1CC(OC(=O)NCc2ccc3c(c2)OCO3)CC2(CCCC(COC(=O)NCCc3ccc(Cl)cc3)O2)O1 (some centres undefined) and write its reported z-score.
Out: 0.575

In: # return recorded z-score for input C[C@]12CCC3c4ccc(OCC5CO5)cc4CCC3C1CC[C@@H]2O (some centres undefined)
Out: -1.42

In: Let me know recorded z-score for `CON=C(C)CCC(=O)OC[C@H]1O[C@H](C#Cc2ccccc2)C=C[C@@H]1Oc1ccc(C)cc1` , thanks.
Out: -2.25

---

- Assay Comment: basal 3T3-L1 adipocyte mitochondrial potential changes, profiling panel, cell-based, JC-1 fluorescence, 3T3-L1 adipocytes, 24 h, 100 nL compound (AID 1168); further: test concentration not given here
- Particulars: JC-1 mitochondrial fluorescence, higher = more signal, called active from +8 up or from −8 down
Response key: 1.0 means z-score >= -0.6; 0.0 means z-score < -0.6.

Answered examples (2):
Mol Smiles | Class Label
CCOC(=O)NN=C1C[C@@H](O)[C@@H](O)[C@@H]2[C@@H]3C(=O)N(c4ccc(F)cc4F)C(=O)[C@@H]3CC[C@H]12 | 0.0
CC(CCN1CCCCc2nc(C)c(C)cc21)=NO[C@H](C)c1cn([C@@H]2COC[C@H]2O)nn1 | 1.0

In: Is z-score for `O=C1[C@H]2[C@H]3[C@H](O)[C@H](O)CC(=NOC[C@@H](O)COCc4ccco4)[C@@H]3CC[C@H]2C(=O)N1c1cccc(Oc2ccccc2)c1` at or above -0.6?
Out: 0.0

In: Item `CCCNC(=O)OC[C@H]1O[C@H](CCON=C2c3cc(OC)ccc3O[C@H](c3cccc(OC)c3)[C@H]2O)C=C[C@@H]1Oc1ccc(OC)cc1` with z-score of -0.6 or above?
Out: 0.0

In: Answer whether z-score of `CCOC(=O)CCN1C(=O)[C@H]2[C@H]3[C@H](O)[C@H](O)CC(=NOCC=C(C)CCC=C(C)C)[C@H]3CC[C@H]2C1=O` is greater than or equal to -0.6.
Out: 1.0

---

- Assay Comment: adipocyte viability effects, profiling panel, cell-based, 3T3-L1 adipocytes, calcein-AM fluorescence, 48 h, basal (AID 1163); further: test concentration not given here
- Particulars: 3T3-L1 adipocytes viability, higher = more signal
Outcome Measure: z-score

Here are 3 compounds together with their reported answers.
Compound | Outcome Measure | Value
COC(=O)[C@H](C)NC(=O)CCC1CC(OC(=O)NCc2cccc3ccccc23)CC2(CCCC(COC(=O)NCCOc3ccccc3)O2)O1 (some centres undefined) | z-score | 0.151
CCOC(=O)CCN1C(=O)[C@H]2[C@H]3[C@H](O)[C@H](O)CC(=NO[C@@H]4O[C@H](CO)[C@@H](O)[C@H](O)[C@H]4O)[C@@H]3CC[C@H]2C1=O | z-score | -0.0641
C=CC[C@@H]1C=C[C@H](ON=C(C)CCN2CCCCc3nc(C)c(C)cc32)[C@@H](CO)O1 | z-score | -0.7

Now look at this one.
In: Specify z-score for `O=C1[C@H]2[C@H]3[C@H](O)[C@H](O)CC(=NOCc4ccccc4)[C@H]3CC[C@H]2C(=O)N1C1CCCCC1` and stop.
Out: -0.228

---

Entries annotated with measured z-score
- Assay Comment: basal MM1S mitochondrial membrane potential changes, profiling panel, cell-based, JC-1 fluorescence, 24 h, 100 nL compound (AID 1170); further: test concentration not given here
- Particulars: higher = more signal

Would you please look over these solved cases?
Mol Smiles | Outcome Measure | Value
COc1ccc(COC(=O)NN=C2C[C@@H](O)[C@@H](O)[C@@H]3[C@@H]4C(=O)N(C[C@@H]5CCCO5)C(=O)[C@@H]4CC[C@@H]23)cc1 | z-score | -1.38
CC(C)=CCCC(C)=CCON=C1C[C@@H](O)[C@@H](O)[C@@H]2[C@@H]3C(=O)N(Cc4ccc5c(c4)OCO5)C(=O)[C@@H]3CC[C@@H]12 | z-score | -0.909
CC(C)CON=C1[C@H]2CCn3c(=O)n(C)c(=O)n3[C@H]2[C@H](O)[C@@H]2O[C@H]12 | z-score | 0.0994
O=C1[C@H]2CCn3c(=O)n(-c4ccccc4)c(=O)n3[C@H]2[C@H](O)[C@@H]2O[C@H]12 | z-score | -0.351
COC(=O)[C@@H]1CC[C@H](C)[C@@H](c2ccc(C)cc2)N1C(=O)c1ccc(C=NOC[C@@H](O)[C@H]2O[C@@H]3OC(C)(C)O[C@@H]3[C@H]2O)cc1 | z-score | -0.732

In: Entry `CC(C)(C)N1C(=O)[C@H]2[C@@H]3C(=CC[C@H]2C1=O)C(=O)[C@H]1O[C@H]1[C@H]3O` needs its z-score filled in; supply it.
Out: -2.59

In: Answer with the recorded z-score for the molecule listed here: `COC(=O)[C@@H]1CC[C@H](C)[C@@H](c2ccc(Br)cc2)N1`
Out: 0.214

---

- Study System: Follistatin-related protein 3 (Homo sapiens)
- Assay Comment: FSTL3 binders on small-molecule microarrays, primary screen, biochemical, small-molecule microarray, 635 nm fluorescence (AID 1105);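 further: score merges emission near 667 nm and signal to noise per printed spot across three slides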
- Particulars: FSTL3 binding, higher = more signal
Output: class label from composite z-score. Mapping: bottom end (below 0.3), midrange (0.3 to below 0.7), top end (0.7 or more)

Example entries begin here.
Compound | Class Label
CC(C)(C)N1C(=O)[C@H]2[C@H]3[C@H](O)[C@H](O)CC(=NNC(=O)OCc4ccccc4)[C@@H]3CC[C@H]2C1=O | midrange
CC(CCN1CCCCc2nc(C)c(C)cc21)=NO[C@H](C)c1cn([C@@H]2COC[C@H]2O)nn1 | top end
COC(=O)[C@H](C)NC(=O)CC=C[C@@H](C)[C@@H]1C=C[C@H](O)[C@@H](CO)O1 | top end
C#CCCCON=C1C[C@@H](O)[C@@H](O)[C@@H]2[C@@H]3C(=O)N(C[C@@H]4CCCO4)C(=O)[C@@H]3CC[C@@H]12 | midrange
CC(C)=CCCC(C)=CCON=C1C[C@@H](O)[C@@H](O)[C@@H]2[C@@H]3C(=O)N([C@@H](C)c4ccccc4)C(=O)[C@@H]3CC[C@@H]12 | midrange
C[C@H]1C=CCC(=O)OC[C@H](C)C(=O)N2CCC[C@H]2C(=O)OC1 | top end

In: Class? Entry: `CON=C[C@@H](OC)[C@H](C)C=CCC(=O)OC`
Out: bottom end

In: Which composite z-score category applies to `COc1cccc([C@H](O)Cn2cc(-c3ccc(CON=C(C)C)cc3)nn2)c1` here?
Out: bottom end

In: Band of `CC(=O)OC[C@H]1O[C@@H](ON=C(C)CCC(=O)OC[C@H]2O[C@H](C#Cc3ccccc3)C=C[C@@H]2Oc2ccc(C)cc2)[C@H](OC(C)=O)[C@@H](OC(C)=O)[C@@H]1OC(C)=O` ?
Out: top end

In: Category of COC(=O)[C@H](C)NC(=O)CCC1CC(OC(=O)NCc2cccc3ccccc23)CC2(CCCC(COC(=O)NCCC(C)C)O2)O1 (stereo partly drawn) , please.
Out: midrange

In: Which category fits this record: `CCN1C(=O)[C@H]2[C@H]3[C@H](O)[C@H](O)CC(=NNC(=O)OCc4ccccc4)[C@H]3CC[C@H]2C1=O`
Out: bottom end

In: Category of `COC(=O)CC=C[C@@H](C)[C@@H](C=NOC[C@@H](O)COCc1ccco1)OC` , please.
Out: bottom end

In: Could you place `C[C@H]1CC[C@@H](C(=O)O)N[C@@H]1c1cccc(N2CCCC2=O)c1` in its proper category? Many thanks.
Out: bottom end
